measured_on: T1, human TNFR1 (recombinant, R&D Systems cat no. 636-R1/CF, biotinylated) (human, UniProt P19438 30-211, limits assumed, biotinylated with EZ-Link NHS-LC-LC-biotin)
T1 construct: it is not tied to the BIAcore reagent; also called p55; hTNFR1
T1 sequence (looked up): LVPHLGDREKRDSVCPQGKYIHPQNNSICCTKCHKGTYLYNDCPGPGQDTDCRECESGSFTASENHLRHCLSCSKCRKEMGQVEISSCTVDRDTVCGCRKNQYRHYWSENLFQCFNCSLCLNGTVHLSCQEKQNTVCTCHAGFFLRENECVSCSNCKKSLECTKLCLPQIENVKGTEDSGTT
experiment_summary: BIAcore T100, biotinylated human TNFR1 on chip
Reported koff by item:

binder	unit_info	koff
DMS0112 (bispecific antibody, anti-TNFR1 dAb / AlbudAb in-line fusion) EVQLLESGGGLVQPGGSLRLSCAASGFTFVKYSMGWVRQAPGKGLEWVSQISNTADRTYYAHSVKGRFTISRDNSKNTLYLQMNSLRAEDTAVYYCAIYTGRWVPFEYWGQGTLVTVSSASTDIQMTQSPSSLSASVGDRVTITCRASRPIGTMLSWYQQKPGKAPKLLILFGSRLQSGVPSRFSGSGSGTDFTLTISSLQPEDFATYYCAQAGTHPTTFGQGTKVEIKR	s⁻¹	5.5e-05
DMS0121 (bispecific antibody, anti-TNFR1 dAb / AlbudAb in-line fusion) EVQLLESGGGLVQPGGSLRLSCAASGFTFVKYSMGWVRQAPGKGLEWVSQISNTADRTYYAHSVKGRFTISRDNSKNTLYLQMNSLRAEDTAVYYCAIYTGRWVPFEYWGQGTLVTVSSASGGGGSGGGGSGGGGSDIQMTQSPSSLSASVGDRVTITCRASRPIGTTLSWYQQKPGKAPKLLILWNSRLQSGVPSRFSGSGSGTDFTLTISSLQPEDFATYYCAQAGTHPTTFGQGTKVEIKR	s⁻¹	6e-05
DMS0124 (bispecific antibody, anti-TNFR1 dAb / AlbudAb in-line fusion) EVQLLESGGGLVQPGGSLRLSCAASGFTFVKYSMGWVRQAPGKGLEWVSQISNTADRTYYAHSVKGRFTISRDNSKNTLYLQMNSLRAEDTAVYYCAIYTGRWVPFEYWGQGTLVTVSSASGGGGSGGGGSGGGGSDIQMTQSPSSLSASVGDRVTITCRASQWIGSQLSWYQQKPGKAPKLLIMWRSSLQSGVPSRFSGSGSGTDFTLTISSLQPEDFATYYCAQGLMKPMTFGQGTKVEIKR	s⁻¹	3.5e-05
DMS0116 (bispecific antibody, anti-TNFR1 dAb / AlbudAb in-line fusion) EVQLLESGGGLVQPGGSLRLSCAASGFTFVKYSMGWVRQAPGKGLEWVSQISNTADRTYYAHSVKGRFTISRDNSKNTLYLQMNSLRAEDTAVYYCAIYTGRWVPFEYWGQGTLVTVSSASTSGPSDIQMTQSPSSLSASVGDRVTITCRASRPIGTMLSWYQQKPGKAPKLLILFGSRLQSGVPSRFSGSGSGTDFTLTISSLQPEDFATYYCAQAGTHPTTFGQGTKVEIKR	s⁻¹	5.4e-05
DMS0111 (bispecific antibody, anti-TNFR1 dAb / AlbudAb in-line fusion) EVQLLESGGGLVQPGGSLRLSCAASGFTFVKYSMGWVRQAPGKGLEWVSQISNTADRTYYAHSVKGRFTISRDNSKNTLYLQMNSLRAEDTAVYYCAIYTGRWVPFEYWGQGTLVTVSSASTDIQMTQSPSSLSASVGDRVTITCRASRPIGTTLSWYQQKPGKAPKLLILWNSRLQSGVPSRFSGSGSGTDFTLTISSLQPEDFATYYCAQAGTHPTTFGQGTKVEIKR	s⁻¹	6.2e-05
